experiment: H69AR cell viability reduction – human, 86K library, primary screen (AID 598); details: H69AR lung tumor viability, ATP luminescence, 72 h; at 10 µM; stronger effect = lower value;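 also: multidrug resistant small cell line overexpressing MRP-1 efflux transporter; 100% = mean luminescence of untreated control wells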
In all, about 85,000 compounds went through this assay and about 5,100 (6%) were called active. The sample as a whole holds a higher share of actives than the screen did.
Property measured: viability (%)

> print(dat)
                                   molecule  endpoint.result
1          CC(=O)c1c(C)n(C(C)C)c2ccc(O)cc12             98.6
2  CN(C)C(=O)NC(O)C(Cl)(Cl)Cl (centres undefined)              103
3  CCOC(=O)c1c(N)n(CCN2CCOCC2)c2nc3ccccc3nc12             92.9
4  COc1ccc(-c2nc(CS(=O)CC(=O)N3CCC4(CC3)OCCO4)c(C)o2)cc1 (centres undefined)             92.7
